Each record here notes measured normalised viability.
Tested on: CAL-85-1
Experiment: normalised viability (% of control), CellTiter-Blue; higher = more viable cells (about 100 = DMSO control)
Conditions: 3 nM; incubation time: 72 h

# Molecule, Assay System, Unit Spec, normalised viability
records = [
    ("Cc1cc(Nc2cc(CN3CCOCC3)c3nc(C)c(Cc4ccc(Cl)cc4F)n3n2)n[nH]1", "CAL-85-1", "%", 87.2),
    ("N#Cc1ccc(COC[C@H]2O[C@@H](n3c(NCc4ccc(Cl)c(Cl)c4)nc4c(N)ncnc43)[C@H](O)[C@@H]2O)cc1", "CAL-85-1", "%", 108),
    ("COCC[n+]1c2c(n(Cc3cnccn3)c1C)C(=O)c1ccccc1C2=O [YM155]", "CAL-85-1", "%", 90.3),
    ("COc1cc2/c(=N/c3ccc(Br)cc3F)nc[nH]c2cc1OCC1CCN(C)CC1 [Vandetanib]", "CAL-85-1", "%", 105),
]
